The measurements presented in this section are drawn from patent US20040018971A1.

Quick list: relative binding ratio (IC50 of standard peptide / IC50 of test peptide) per entry.
Target: T1, HLA-A*0301 (human)
T1 construct: Purified HLA molecule, 5 to 500 nM in the assay; also called HLA-A3
Test: competition with 125I-labelled probe peptide on purified HLA-A*0301, gel filtration; ratio to standard peptide 941.12
# number only, unit relative binding ratio dropped from output

INSERT INTO measurements (binder, units_of_measure, observed_result) VALUES
  ('VTGASPGGLR [HER2/neu peptide, position 129, 10 amino acids]', 'relative binding ratio', 0.0002),
  ('VLQGLPREY [HER2/neu peptide, position 546, 9 amino acids]', 'relative binding ratio', 0.0012),
  ('WIPDGENVK [HER2/neu peptide, position 739, 9 amino acids]', 'relative binding ratio', 0.0002);

Continue with the next binder.
QUERY: Input VSEFSRMAR [HER2/neu peptide, position 973, 9 amino acids] , output reported relative binding ratio (IC50 of standard peptide / IC50 of test peptide).
RESULT: -0.0002
